assayed.system: Fes (UniProt P07332)
Sequence (P07332 whole entry, looked up): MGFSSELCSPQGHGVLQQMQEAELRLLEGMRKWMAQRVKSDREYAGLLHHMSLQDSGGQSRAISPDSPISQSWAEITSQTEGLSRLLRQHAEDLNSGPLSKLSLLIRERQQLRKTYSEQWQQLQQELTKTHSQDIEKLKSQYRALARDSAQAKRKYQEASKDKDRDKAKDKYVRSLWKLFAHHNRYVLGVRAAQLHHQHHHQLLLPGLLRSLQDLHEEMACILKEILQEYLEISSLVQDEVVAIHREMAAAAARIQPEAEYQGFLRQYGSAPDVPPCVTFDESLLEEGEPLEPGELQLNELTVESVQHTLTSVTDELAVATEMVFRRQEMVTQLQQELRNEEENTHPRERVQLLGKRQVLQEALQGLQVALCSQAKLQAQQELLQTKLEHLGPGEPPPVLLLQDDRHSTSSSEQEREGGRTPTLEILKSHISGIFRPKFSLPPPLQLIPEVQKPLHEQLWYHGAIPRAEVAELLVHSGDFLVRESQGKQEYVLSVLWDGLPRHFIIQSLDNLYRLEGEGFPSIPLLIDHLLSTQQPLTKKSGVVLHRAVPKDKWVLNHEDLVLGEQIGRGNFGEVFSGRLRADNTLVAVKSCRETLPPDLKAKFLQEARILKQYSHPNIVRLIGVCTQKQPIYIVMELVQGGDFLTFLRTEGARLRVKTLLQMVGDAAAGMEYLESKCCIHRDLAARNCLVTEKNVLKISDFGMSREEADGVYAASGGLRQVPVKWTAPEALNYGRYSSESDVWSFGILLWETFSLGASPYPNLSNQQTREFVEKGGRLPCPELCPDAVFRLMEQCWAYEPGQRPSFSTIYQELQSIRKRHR
test.protocol: phosphorylation enrichment, bacterial display (enrichment ratio); higher = better substrate or ligand; peptides without Tyr show the background
Record Y whenever phosphorylation enrichment is at 1 or higher; record N when lower.

Q. Assess whether reported phosphorylation enrichment for EVTLTYATGIK [NFKB1_Y485_T489I] sits at 1 or higher.
A. Y

###

assayed.system: EPHB1 (UniProt P54762)
Sequence (P54762 whole entry, looked up): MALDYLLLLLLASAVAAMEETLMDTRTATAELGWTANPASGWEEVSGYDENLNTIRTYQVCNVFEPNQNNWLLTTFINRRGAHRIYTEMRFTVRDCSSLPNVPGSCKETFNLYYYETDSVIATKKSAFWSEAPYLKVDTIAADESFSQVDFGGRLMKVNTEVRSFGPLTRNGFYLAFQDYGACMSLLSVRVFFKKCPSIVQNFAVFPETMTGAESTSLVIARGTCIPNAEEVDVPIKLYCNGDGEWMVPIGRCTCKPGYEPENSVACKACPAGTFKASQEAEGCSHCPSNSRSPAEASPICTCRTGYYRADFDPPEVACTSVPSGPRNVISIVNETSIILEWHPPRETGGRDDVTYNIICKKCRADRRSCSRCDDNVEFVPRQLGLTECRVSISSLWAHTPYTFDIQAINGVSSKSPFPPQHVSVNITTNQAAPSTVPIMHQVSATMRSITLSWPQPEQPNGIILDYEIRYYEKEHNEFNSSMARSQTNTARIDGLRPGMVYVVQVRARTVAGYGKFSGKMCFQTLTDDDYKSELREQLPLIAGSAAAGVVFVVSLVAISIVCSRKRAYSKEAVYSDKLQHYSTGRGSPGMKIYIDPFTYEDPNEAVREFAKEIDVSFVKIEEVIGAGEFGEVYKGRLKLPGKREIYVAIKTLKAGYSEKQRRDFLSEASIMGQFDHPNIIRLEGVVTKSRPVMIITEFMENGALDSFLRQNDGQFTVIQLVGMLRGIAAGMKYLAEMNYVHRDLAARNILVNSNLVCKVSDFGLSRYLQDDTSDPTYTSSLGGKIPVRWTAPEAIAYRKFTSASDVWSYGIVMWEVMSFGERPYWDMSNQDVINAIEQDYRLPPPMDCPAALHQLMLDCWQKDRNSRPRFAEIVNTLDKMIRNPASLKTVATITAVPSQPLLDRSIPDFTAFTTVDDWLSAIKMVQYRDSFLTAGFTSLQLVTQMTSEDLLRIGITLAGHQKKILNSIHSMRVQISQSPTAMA
test.protocol: phosphorylation enrichment, bacterial display (enrichment ratio); higher = better substrate or ligand; peptides without Tyr show the background
experimental.readout: phosphorylation enrichment
Simply state the number, no unit and no words.

YQLPYYNMVPS [BMPR1A_Y458]: 2.58
PLLLSYFLIKW [NUP160_Y773_YF]: 0.909
ENELTYFCFKK [CD59_Y86_C89Y_YF]: 0.796
EGGFAYVPLKD [PRIM2_Y208_D204G]: 0.466
LFLASYCIGGG [UBD_Y161_C160S]: 0.655

Q. Give me measured phosphorylation enrichment, please, for this sequence: RKKLFYKADGE [SERPINC1_Y272_E269K]
A. 0.34

Q. Give me measured phosphorylation enrichment, please, for this sequence: LENSTYQFIHV [CRB1_Y760_R764H_YF]
A. 9.73

Q. Give me measured phosphorylation enrichment, please, for this sequence: DFPGIYSGFDD [POLR1C_Y33_N32I_YF]
A. 0.692

Q. Give me measured phosphorylation enrichment, please, for this sequence: ARSHIYTFASC [MEFV_Y741]
A. 0.488

Q. Give me measured phosphorylation enrichment, please, for this sequence: RLKAKYPAATG [GLI3_Y933_A934P]
A. 0.708

Q. Give me measured phosphorylation enrichment, please, for this sequence: GESKDYALHVG [SVIL_Y185]
A. 1.92

Q. Give me measured phosphorylation enrichment, please, for this sequence: CKLVDYDSARH [BIN1_Y150_R145C]
A. 0.505

Q. Give me measured phosphorylation enrichment, please, for this sequence: AGQEEYSAMRD [HRAS_Y64]
A. 0.507

Q. Give me measured phosphorylation enrichment, please, for this sequence: EEVKAYLDFGE [CHAC2_Y78_R82G]
A. 0.719

###

This listing pairs sequences with measured phosphorylation enrichment.
assayed.system: FGFR3 (UniProt P22607)
Sequence (P22607 whole entry, looked up): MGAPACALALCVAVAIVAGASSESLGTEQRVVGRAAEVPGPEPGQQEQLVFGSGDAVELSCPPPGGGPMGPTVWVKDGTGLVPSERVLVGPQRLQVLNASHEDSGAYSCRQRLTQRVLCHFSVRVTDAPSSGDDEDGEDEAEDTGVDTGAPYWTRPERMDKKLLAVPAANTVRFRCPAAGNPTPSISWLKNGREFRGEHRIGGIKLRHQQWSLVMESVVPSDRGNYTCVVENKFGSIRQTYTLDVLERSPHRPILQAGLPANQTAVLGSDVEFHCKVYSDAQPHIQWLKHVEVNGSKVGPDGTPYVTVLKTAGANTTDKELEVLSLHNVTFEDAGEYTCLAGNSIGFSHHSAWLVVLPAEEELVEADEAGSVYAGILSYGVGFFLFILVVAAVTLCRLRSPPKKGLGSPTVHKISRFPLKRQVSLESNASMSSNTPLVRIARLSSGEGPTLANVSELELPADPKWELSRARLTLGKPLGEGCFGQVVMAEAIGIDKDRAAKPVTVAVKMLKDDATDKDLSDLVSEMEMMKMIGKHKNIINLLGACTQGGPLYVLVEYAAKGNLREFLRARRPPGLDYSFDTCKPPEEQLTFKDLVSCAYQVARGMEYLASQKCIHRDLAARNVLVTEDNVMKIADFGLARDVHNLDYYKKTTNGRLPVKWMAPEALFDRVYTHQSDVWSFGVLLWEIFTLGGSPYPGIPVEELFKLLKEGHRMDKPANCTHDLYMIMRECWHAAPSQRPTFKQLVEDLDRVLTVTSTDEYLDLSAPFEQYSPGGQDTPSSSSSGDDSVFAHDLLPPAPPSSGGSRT
test.protocol: phosphorylation enrichment, bacterial display (enrichment ratio); higher = better substrate or ligand; peptides without Tyr show the background
Simply state the number, no unit and no words.

ERCAQYKKDGA [ALDOA_Y138]: 0.484
APQFTYTQGGQ [FLNA_Y1763_A1764T_YF]: 0.582
RLKAKYPAATG [GLI3_Y933_A934P]: 0.941

Q. Give me measured phosphorylation enrichment, please, for this sequence: ENRKFYMDLKE [PURA_Y156_YF]
A. 0.738

Q. Give me measured phosphorylation enrichment, please, for this sequence: HPFHVYSQPGM [BAG3_Y114_P115S]
A. 0.908

Q. Give me measured phosphorylation enrichment, please, for this sequence: SPDMLYQYLKQ [RPAP3_Y567]
A. 2.04

Q. Give me measured phosphorylation enrichment, please, for this sequence: SRDDDYETIAM [NPY1R_Y347]
A. 0.753

Q. Give me measured phosphorylation enrichment, please, for this sequence: YIILIYAMKKK [SLCO1B1_Y645]
A. 0.692

Q. Give me measured phosphorylation enrichment, please, for this sequence: SVTCTYSPTLN [TP53_Y126_A129T]
A. 0.912

Q. Give me measured phosphorylation enrichment, please, for this sequence: MCVKSYTIHFS [F5_Y2153_Y2149C_YF]
A. 1.01

###

Tested on: Fer (mouse)
test.protocol: phosphorylation enrichment, bacterial display (enrichment ratio); higher = better substrate or ligand; peptides without Tyr show the background
Classification field. Basis: phosphorylation enrichment. Definitions: low: < 0.4; mid: ≥ 0.4 and < 0.6; high: ≥ 0.6

Solved cases (3 shown):
EACPSYSHVVL [CHST6_Y168_R166P]: high
SDGHEYIFVDP [PDGFRB_Y579_YF]: mid
LLREWYLQDPY [SIX3_Y225]: high

Q. # bin lookup: classify LNEAVYTKMMT [G6PD_Y401_P396L] by its phosphorylation enrichment
A. high

Q. # bin lookup: classify QEIATCRRLLE [KRT14_Y415_Y415C] by its phosphorylation enrichment
A. low

###

assayed.system: c-Src SH2
test.protocol: SH2 binding enrichment of the phosphorylated peptide, bacterial display (enrichment ratio); higher = better substrate or ligand; peptides without Tyr show the background
experimental.readout: SH2 binding enrichment
Simply state the number, no unit and no words.

SVTCTYSPALN [TP53_Y126]: 0.401
IRRSSYEDSSL [HNF4A_Y144_T139I]: 0.47
LIGTPYWMAPE [PAK5_Y608_V604I]: 0.882

Q. Give me measured SH2 binding enrichment, please, for this sequence: WAFNLYDINKF [KCNIP3_Y174_D179Y_YF]
A. 0.519

Q. Give me measured SH2 binding enrichment, please, for this sequence: EEEYEYMNRRR [ERBB3_Y1199_D1194E]
A. 0.605

Q. Give me measured SH2 binding enrichment, please, for this sequence: RRKRAYVEIEF [MAK16_Y282_Q277R_YF]
A. 0.434

Q. Give me measured SH2 binding enrichment, please, for this sequence: FADIAYNFRRG [PAH_Y166_H170R_YF]
A. 0.541

###

This listing pairs sequences with measured phosphorylation enrichment.
assayed.system: EPHB2 (UniProt P29323)
Sequence (P29323 whole entry, looked up): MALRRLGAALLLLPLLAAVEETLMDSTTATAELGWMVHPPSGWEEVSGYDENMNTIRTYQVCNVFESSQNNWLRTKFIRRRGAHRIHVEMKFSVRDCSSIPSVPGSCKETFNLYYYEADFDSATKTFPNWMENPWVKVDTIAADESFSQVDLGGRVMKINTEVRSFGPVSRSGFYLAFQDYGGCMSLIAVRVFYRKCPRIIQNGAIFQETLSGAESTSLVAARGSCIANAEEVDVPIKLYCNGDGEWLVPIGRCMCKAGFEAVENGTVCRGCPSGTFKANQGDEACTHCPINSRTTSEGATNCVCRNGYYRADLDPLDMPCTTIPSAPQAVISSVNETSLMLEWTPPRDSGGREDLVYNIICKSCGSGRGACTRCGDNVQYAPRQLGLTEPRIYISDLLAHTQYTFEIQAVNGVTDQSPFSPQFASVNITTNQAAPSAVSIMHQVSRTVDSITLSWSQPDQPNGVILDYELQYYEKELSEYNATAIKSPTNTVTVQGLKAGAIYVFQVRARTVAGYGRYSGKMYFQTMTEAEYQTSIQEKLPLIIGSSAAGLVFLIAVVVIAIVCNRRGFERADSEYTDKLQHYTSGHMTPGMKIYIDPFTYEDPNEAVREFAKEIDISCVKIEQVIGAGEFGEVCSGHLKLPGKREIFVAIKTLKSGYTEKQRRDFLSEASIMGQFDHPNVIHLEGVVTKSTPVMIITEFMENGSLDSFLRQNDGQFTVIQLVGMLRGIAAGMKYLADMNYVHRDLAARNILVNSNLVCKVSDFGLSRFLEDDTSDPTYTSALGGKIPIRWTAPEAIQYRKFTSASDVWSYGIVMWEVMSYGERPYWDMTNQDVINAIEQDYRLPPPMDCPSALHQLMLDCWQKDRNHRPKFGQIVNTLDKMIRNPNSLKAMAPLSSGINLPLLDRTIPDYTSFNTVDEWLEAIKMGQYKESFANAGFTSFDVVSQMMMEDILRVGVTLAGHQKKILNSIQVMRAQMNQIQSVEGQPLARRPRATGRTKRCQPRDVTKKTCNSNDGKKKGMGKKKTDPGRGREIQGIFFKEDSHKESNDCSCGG
test.protocol: phosphorylation enrichment, bacterial display (enrichment ratio); higher = better substrate or ligand; peptides without Tyr show the background
Simply state the number, no unit and no words.

Consider the reported phosphorylation enrichment for these sequences:
KKCTTYIDCDL [ASPA_Y64_R63T]: 0.474
WVYNHYRWFIW [BRCA2_Y2624_I2627F]: 0.466
IFHLSYLHNCE [PDE6B_Y227_YF]: 0.566
PVQAAYQQVVA [HBB_Y131_K133Q]: 0.822
EYLHKYKGFKI [SYNE1_Y6953_Q6951H]: 0.509
CDTKLYTSAPN [DNTTIP2_Y427]: 0.791
AVSEGYKDFRA [CDA_Y79]: 0.456
AFRRGYFDEEM [PLEC_Y2971_YF]: 0.616

Q. Give me measured phosphorylation enrichment, please, for this sequence: GEDEPYAEPFA [APBA1_Y183_S184A_YF]
A. 0.571

Q. Give me measured phosphorylation enrichment, please, for this sequence: QDEHGYISRCF [HSPB1_Y133]
A. 0.923

Q. Give me measured phosphorylation enrichment, please, for this sequence: LSIDRYHAIVY [NPSR1_Y147]
A. 0.594

Q. Give me measured phosphorylation enrichment, please, for this sequence: WAFNLYDINKF [KCNIP3_Y174_D179Y_YF]
A. 3.11

Q. Give me measured phosphorylation enrichment, please, for this sequence: PFSNSYENSLI [EPOR_Y489_P488S_YF]
A. 0.498

Q. Give me measured phosphorylation enrichment, please, for this sequence: IQRSLYDRPAS [PDGFRA_Y762]
A. 0.479

###

assayed.system: SHP2-C SH2
test.protocol: SH2 binding enrichment of the phosphorylated peptide, bacterial display (enrichment ratio); higher = better substrate or ligand; peptides without Tyr show the background
experimental.readout: SH2 binding enrichment

AFDNLYYWDQD [ERBB2_Y1221]: 0.698
GINDDYGQLKN [NBN_Y679]: 1.42

Q. For SHP2-C SH2, give the measured SH2 binding enrichment of the entry GHLFAYNWISI [BEST1_Y227_D228N_YF]
A. 1.13

Q. For SHP2-C SH2, give the measured SH2 binding enrichment of the entry TDTQLYGRFGS [ITGA2B_Y384_G380D]
A. 0.656

Q. For SHP2-C SH2, give the measured SH2 binding enrichment of the entry QTLTDYDIRFF [CSNK2A1_Y131_YF]
A. 0.651

Q. For SHP2-C SH2, give the measured SH2 binding enrichment of the entry DLTQDSEEWKR [ORC6_Y232_Y232S]
A. 0.823

Q. For SHP2-C SH2, give the measured SH2 binding enrichment of the entry VMLENYSNLLS [ZFP69_Y109_V113L]
A. 0.928

###

assayed.system: Fyn (UniProt P06241)
Sequence (P06241 whole entry, looked up): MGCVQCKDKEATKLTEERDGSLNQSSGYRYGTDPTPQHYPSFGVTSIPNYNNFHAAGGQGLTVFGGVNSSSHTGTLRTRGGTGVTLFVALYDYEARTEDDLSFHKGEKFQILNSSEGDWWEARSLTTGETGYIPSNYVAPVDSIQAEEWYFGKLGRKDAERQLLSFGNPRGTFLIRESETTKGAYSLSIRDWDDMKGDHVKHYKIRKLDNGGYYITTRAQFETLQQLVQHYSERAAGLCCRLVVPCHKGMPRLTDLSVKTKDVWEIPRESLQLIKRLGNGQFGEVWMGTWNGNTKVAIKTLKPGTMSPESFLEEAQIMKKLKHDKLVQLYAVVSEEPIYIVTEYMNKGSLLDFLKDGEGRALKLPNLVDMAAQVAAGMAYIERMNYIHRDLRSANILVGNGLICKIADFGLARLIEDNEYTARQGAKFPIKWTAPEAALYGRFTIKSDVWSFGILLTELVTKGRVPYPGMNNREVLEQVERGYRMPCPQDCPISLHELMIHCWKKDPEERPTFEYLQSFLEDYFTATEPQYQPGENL
test.protocol: phosphorylation enrichment, bacterial display (enrichment ratio); higher = better substrate or ligand; peptides without Tyr show the background
Classification field. Basis: phosphorylation enrichment. Definitions: low range (below 0.5), mid range (0.5 to below 0.7), high range (0.7 or more)

Solved cases (5 shown):
TLRKTYGEMAD [ALB_Y108_E106K]: low range
CENCHYPIVPL [LCK_Y25]: low range
KMLEKYKERLN [TLK2_Y259]: low range
LIDSSYLTPTA [GREB1L_Y1063_R1066P]: low range
YARECYSALPQ [SARS2_Y52_G51C]: mid range

Q. # bin lookup: classify AFLEDYFTSTE [SRC_Y522] by its phosphorylation enrichment
A. mid range

Q. # bin lookup: classify MSLDQYSPSFP [FGFR1_Y776_P772S] by its phosphorylation enrichment
A. mid range

Q. # bin lookup: classify SQQTFCRVSNM [ABCD1_Y181_Y181C_YF] by its phosphorylation enrichment
A. low range

Q. # bin lookup: classify KLGDVYVNDAF [PGK1_Y161] by its phosphorylation enrichment
A. mid range

Q. # bin lookup: classify PQGVRYIFTID [DCX_Y103_YF] by its phosphorylation enrichment
A. mid range

Q. # bin lookup: classify EAVLHYKHQNQ [MTOR_Y1804] by its phosphorylation enrichment
A. low range
